System: OVCAR4
test.method.notes: Euclidean distance of Cell Painting phenotypic profile (signed KS, 77 features) to DMSO centroid (dimensionless distance); 5 or 10 uM (library dependent); higher = stronger phenotypic change vs DMSO (phenoactivity)
assay.conditions: 48 h
Counter-ions that a name gives are not always drawn.
Tag: MET if measured Euclidean distance is not below 1, NOT MET if it is.

CCOCCn1c(C2CCN(CCc3ccc(C(C)(C)C(=O)O)cc3)CC2)nc2ccccc21; NOT MET

Lookup: Given the entry `C=CCc1ccc(O)c(-c2cc(CC=C)ccc2O)c1` , answer whether its Euclidean distance meets or surpasses 1.
Found: MET

Lookup: Given the entry COc1ccc(CCNCC(O)COc2cccc(C)c2)cc1OC (stereo not drawn) [Bevantolol hydrochloride] , answer whether its Euclidean distance meets or surpasses 1.
Found: MET

Lookup: Given the entry `Cc1cccc(-c2nn3c(c2-c2ccnc4ccc(C(N)=O)cc24)CCC3)n1` , answer whether its Euclidean distance meets or surpasses 1.
Found: MET

Lookup: Given the entry C=CCCCCCCCCC(=O)[O-].C=CCCCCCCCCC(=O)[O-].[Zn+2] [Zinc Undecylenate] , answer whether its Euclidean distance meets or surpasses 1.
Found: MET

Lookup: Given the entry O=C(O)CCC(=O)OC[C@@H](NC(=O)C(Cl)Cl)[C@H](O)c1ccc([N+](=O)[O-])cc1 [Chloramphenicol sodium succinate] , answer whether its Euclidean distance meets or surpasses 1.
Found: MET

Lookup: Given the entry `O=C(O)CCCN1CCC(O[C@@H](c2ccc(Cl)cc2)c2ccccn2)CC1` , answer whether its Euclidean distance meets or surpasses 1.
Found: NOT MET

* * *

Test system: A549
test.method.notes: Euclidean distance of Cell Painting phenotypic profile (signed KS, 77 features) to DMSO centroid (dimensionless distance); 5 or 10 uM (library dependent); higher = stronger phenotypic change vs DMSO (phenoactivity)
assay.conditions: 48 h
reported.endpoint: Euclidean distance
Answers are plain numbers.

Consider the worked cases shown below.
CC1=C(/C=C/C(C)=C/C=C/C(C)=C/C(=O)O)C(C)(C)CCC1 [Tretinoin]; 1.29
NC(=O)c1ncn([C@@H]2O[C@H](CO)[C@@H](O)[C@H]2O)c1N [Acadesine]; 1.3
C[C@H](N)[C@H](O)c1cccc(O)c1 [Metaraminol Bitartrate]; 0.731
C[C@@H]1NC(=O)[C@@H](N)CNC(=O)[C@H](C2CCNC(=N)N2)NC(=O)/C(=C/NC(N)=O)NC(=O)[C@H](CNC(=O)CC(N)CCCN)NC1=O.N=C1NCC[C@H]([C@@H]2NC(=O)/C(=C/NC(N)=O)NC(=O)[C@H](CNC(=O)C[C@@H](N)CCCN)NC(=O)[C@H](CO)NC(=O)[C@@H](N)CNC2=O)N1 [Capreomycin Sulfate]; 0.995

I would be grateful if you could provide Euclidean distance for each of the following entries.
1. O=C1c2ccccc2C(=O)c2c1ccc(O)c2O [Alizarin]
2. CN(C)[C@@H]1C(O)=C(C(N)=O)C(=O)[C@@]2(O)C(O)=C3C(=O)c4c(O)cccc4[C@@](C)(O)[C@H]3[C@H](O)[C@@H]12 [Oxytetracycline Dihydrate]

Found:
1: 1.45; 2: 0.832

* * *

Kindly supply the reported Euclidean distance values for the records listed here.
System: HEPG2
test.method.notes: Euclidean distance of Cell Painting phenotypic profile (signed KS, 77 features) to DMSO centroid (dimensionless distance); 5 or 10 uM (library dependent); higher = stronger phenotypic change vs DMSO (phenoactivity)
assay.conditions: 48 h
Structures can show the parent of a compound that is named as a salt.

COc1cc(O)c2c(c1)C(=O)c1cc(C)cc(O)c1C2=O [Rheochrysidin]; 4.92
COc1cc(C(=O)NS(=O)(=O)c2ccccc2C)ccc1Cc1cn(C)c2ccc(NC(=O)OC3CCCC3)cc12 [Zafirlukast]; 0.548
CC(=O)[O-].[K+] [Potassium acetate]; 0.554
CC1=C(/C=C/C(C)=C/C=C/C(C)=C/C(=O)Nc2ccc(O)cc2)C(C)(C)CCC1 [Fenretinide]; 1.91
CC[C@H]1OC(=O)[C@H](C)[C@@H](O[C@H]2C[C@@](C)(OC)[C@@H](O)[C@H](C)O2)[C@H](C)[C@@H](O[C@@H]2O[C@H](C)C[C@H](N(C)C)[C@H]2O)[C@](C)(O)C[C@@H](C)C(=O)[C@H](C)[C@@H](O)[C@]1(C)O [Erythromycin thiocyanate]; 0.812

I would be grateful if you could provide Euclidean distance for each of the following entries.
1. C=C[C@H]1CN2CC[C@H]1C[C@@H]2[C@@H](O)c1ccnc2ccc(OC)cc12 [Quinidine sulfate]
2. CO[C@H]1O[C@@H]2O[C@@]3(C)CC[C@H]4[C@H](C)CC[C@@H]([C@H]1C)[C@@]24OO3 [Artemether]

Found:
1. 0.831
2. 0.672

* * *

Test system: 786-O
test.method.notes: Euclidean distance of Cell Painting phenotypic profile (signed KS, 77 features) to DMSO centroid (dimensionless distance); 5 or 10 uM (library dependent); higher = stronger phenotypic change vs DMSO (phenoactivity)
assay.conditions: 48 h
Tag: 1.0 if measured Euclidean distance is not below 1, 0.0 if it is.

CCOC(=O)[C@H](CCc1ccccc1)N[C@@H](C)C(=O)N1[C@H](C(=O)O)C[C@@H]2CCC[C@@H]21; 1.0
Cn1nnc(-c2ccc(-c3ccc(N4C[C@H](CO)OC4=O)cc3F)cn2)n1; 1.0
O=C1[C@@H]2[C@H]3CC[C@H](C3)[C@@H]2C(=O)N1C[C@@H]1CCCC[C@H]1CN1CCN(c2nsc3ccccc23)CC1; 1.0

Now consider the entry below.
Lookup: Given the entry `CC1=CC(=O)c2ccccc2C1=O` , answer whether its Euclidean distance meets or surpasses 1.
Found: 1.0

* * *

Test system: FB
test.method.notes: Euclidean distance of Cell Painting phenotypic profile (signed KS, 77 features) to DMSO centroid (dimensionless distance); 5 or 10 uM (library dependent); higher = stronger phenotypic change vs DMSO (phenoactivity)
assay.conditions: 48 h
Where a name gives a salt, the structure may show the parent alone.
Kindly supply the reported Euclidean distance values for the records listed here.
Give bare numbers.

Consider the worked cases shown below.
C[C@H]1CNCCCN1S(=O)(=O)c1cccc2cncc(F)c12 [Ripasudil (K-115) hydrochloride dihydrate]; 2.01
COc1ccc2[nH]c([S+]([O-])Cc3ncc(C)c(OC)c3C)nc2c1 (stereo not given) [Omeprazole Sodium]; 0.71
Cc1c(Cc2ccc3ccccc3n2)c2cc(F)ccc2n1CC(=O)O; 1.16
CCC(CC)CC1(C(=O)Nc2ccccc2SC(=O)C(C)C)CCCCC1; 1

Below: the item to evaluate.
Lookup: Find the recorded Euclidean distance belonging to `CCCS(=O)(=O)N[C@H]1C[C@@H](N(C)c2ncnc3[nH]ccc23)C1` and report it.
Found: 1.03

* * *

Kindly supply the reported Euclidean distance values for the records listed here.
Test system: FB
test.method.notes: Euclidean distance of Cell Painting phenotypic profile (signed KS, 77 features) to DMSO centroid (dimensionless distance); 5 or 10 uM (library dependent); higher = stronger phenotypic change vs DMSO (phenoactivity)
assay.conditions: 48 h
Where a name gives a salt, the structure may show the parent alone.
Answers are plain numbers.

Consider the worked cases shown below.
Cn1cc(-c2nc(N[C@@H]3CCCC[C@@H]3N)c(F)c3c2C(=O)NC3)cn1; 2.99
O=c1cc(-c2ccccc2)oc2cc(O)c(O)c(O)c12; 2.7
CCC(NC(C)C)C(O)c1ccc(O)c2[nH]c(=O)ccc12 (stereo not drawn) [Procaterol HCl]; 0.891

I would be grateful if you could provide Euclidean distance for each of the following entries.
1. CCOC(=O)[C@H]1O[C@@H]1C(=O)N[C@@H](CC(C)C)C(=O)NCCC(C)C
2. COc1c(O)cc2c(c1O)[C@@H]1O[C@H](CO)[C@@H](O)[C@H](O)[C@H]1OC2=O
3. COc1cc(C(=O)NCc2ccc(OCCN(C)C)cc2)cc(OC)c1OC [Tribenzagan Hydrochloride]
4. O=C(O)CC1CC(c2ccccc2)=NO1 (stereo not drawn)
5. CC1(C)[C@@H](O[C@H]2O[C@H](C(=O)O)[C@@H](O)[C@H](O)[C@H]2O[C@@H]2O[C@H](C(=O)O)[C@@H](O)[C@H](O)[C@H]2O)CC[C@]2(C)[C@H]3C(=O)C=C4[C@@H]5C[C@@](C)(C(=O)O)CC[C@]5(C)CC[C@@]4(C)[C@]3(C)CC[C@@H]12 [Diammonium Glycyrrhizinate]

Found:
1: 1.17; 2: 0.906; 3: 1.12; 4: 1.31; 5: 0.929

* * *

Tested on: OVCAR4
test.method.notes: Euclidean distance of Cell Painting phenotypic profile (signed KS, 77 features) to DMSO centroid (dimensionless distance); 5 or 10 uM (library dependent); higher = stronger phenotypic change vs DMSO (phenoactivity)
assay.conditions: 48 h
Structures can show the parent of a compound that is named as a salt.
Tag: 1 if measured Euclidean distance is not below 1, -1 if it is.

Example results:
O=C(O)c1cc(O)c2c(c1)[C@H]([C@H]1c3cc(C(=O)O)cc(O)c3C(=O)c3c(O[C@@H]4O[C@H](CO)[C@@H](O)[C@H](O)[C@H]4O)cccc31)c1cccc(O[C@@H]3O[C@H](CO)[C@@H](O)[C@H](O)[C@H]3O)c1C2=O [Sennoside A]; 1
CC(C)C[C@H](NC(=O)[C@H](CCc1ccccc1)NC(=O)CN1CCOCC1)C(=O)N[C@@H](Cc1ccccc1)C(=O)N[C@@H](CC(C)C)C(=O)[C@@]1(C)CO1; 1
Cn1c(=O)cc(N2CCC[C@@H](N)C2)n(Cc2cc(F)ccc2C#N)c1=O; -1
Cc1nc(C(=O)NCC(=O)O)c(O)c2ccc(Oc3ccccc3)cc12; 1
COc1cc(F)c(C(C)C)cc1-c1ccc(C(F)(F)F)cc1CN1C(=O)O[C@H](c2cc(C(F)(F)F)cc(C(F)(F)F)c2)[C@@H]1C; -1

Lookup: Given the entry `C=CCNC1=C2C[C@@H](C)C[C@H](OC)[C@H](O)[C@@H](C)/C=C(\C)[C@H](OC(N)=O)[C@@H](OC)/C=C\C=C(/C)C(=O)NC(=CC1=O)C2=O` , answer whether its Euclidean distance meets or surpasses 1.
Found: 1

Lookup: Given the entry NCCS [Cysteamine HCl] , answer whether its Euclidean distance meets or surpasses 1.
Found: 1
